# Assayed system: KRAS G13D (Homo sapiens, UniProt P01116, G13D)
# Sequence (P01116 1-188 isoform P01116-2 G13D): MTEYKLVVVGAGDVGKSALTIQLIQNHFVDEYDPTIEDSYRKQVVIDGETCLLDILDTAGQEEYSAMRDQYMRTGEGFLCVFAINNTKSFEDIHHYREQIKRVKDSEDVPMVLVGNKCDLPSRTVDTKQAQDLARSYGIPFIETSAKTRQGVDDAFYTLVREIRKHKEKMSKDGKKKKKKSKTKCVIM
# Experiment summary: Cellular KRAS:RAF Disruption Assay (NanoBRET), KRAS G13D
# Assay setup: HEK293 T cells co-expressing RAF1 and KRAS G13D, 24 hours; read-out: RAS::RAF binding via NanoBRET IC50, KRAS G13D
Readout label: IC50 (nM)

Observe how each entry below is paired with its result.
• C#Cc1c(F)ccc2cc(O)cc(-c3ncc4c(N5C6COCC5C6)nc(OC[C@@]56CCCN5C[C@H](F)C6)nc4c3F)c12 = 22
• C#Cc1c(F)ccc2cc(O)cc(-c3ncc4c(N5CC6CCC(C5)N6C(=O)C5CC5)nc(OC[C@@]56CCCN5C[C@H](F)C6)nc4c3F)c12 = 72

I = C#Cc1c(F)ccc2cc(O)cc(-c3ccc4c(N5CCCOCC5)nc(OC[C@@]56CCCN5C[C@H](F)C6)nc4c3F)c12
II = C#Cc1c(F)ccc2cc(O)cc(-c3ccc4c(N5CC6CCC(C5)N6C(=O)C(F)(F)F)nc(OC[C@]56CCC[C@H]5N(C)CCC6)nc4c3F)c12
stdin: Sorting by IC50 in descending order, would I or II appear first? Answer format: the label of the selected item.
stdout: II

P = C#Cc1c(F)ccc2cc(O)cc(-c3ncc4c(N5CCCOCC5)nc(OC[C@]56CCC[C@H]5N(C)CCC6)nc4c3F)c12
Q = C#Cc1c(F)ccc2cc(O)cc(-c3ccc4c(N5CCCOCC5)nc(OC[C@]56CCC[C@H]5N(C)CCC6)nc4c3F)c12
R = C#Cc1c(F)ccc2cc(O)cc(-c3ccc4c(N5CC6CCC(C5)N6C(=O)C(F)(F)F)nc(OC[C@@]56CCCN5C[C@H](F)C6)nc4c3F)c12
stdin: Ascending by IC50, please: list the compounds accordingly. To answer, write out the labels according to the requested order.
stdout: P, Q, R
(P: 5 nM, Q: 49 nM, R: 199 nM)

The reported numbers originate from patent US20240199584A1.
